Values from the RNAGym collection of RNA variant scans (doi:10.1002/anie.201605470)

Catalogue of variants with associated self-cleavage
B1: Osa-1-4 twister ribozyme (parent)
chain: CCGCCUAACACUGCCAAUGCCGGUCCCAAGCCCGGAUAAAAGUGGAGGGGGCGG

- Variants of: B1
- experiment-notes: self-cleavage, relative activity (ratio to wild type); higher = more cleavage; co-transcriptional
measurement-type: self-cleavage

mutant_label="C32G G44U" value_measured=0.08
mutant_label="G44A G50C" value_measured=0.91
mutant_label="A38C C20G" value_measured=0.09
mutant_label="A16C C20A" value_measured=0.83
mutant_label="G22C U24A" value_measured=0.04
mutant_label="A29G G42U" value_measured=0.04
mutant_label="C31G G23C" value_measured=0.11
mutant_label="A16C U24A" value_measured=0.11
mutant_label="A36C C26G" value_measured=0.06
mutant_label="C15A G23U" value_measured=0.05
mutant_label="A17U A41C" value_measured=0.98
mutant_label="A41G U43G" value_measured=0.16
mutant_label="G30C U18G" value_measured=0.06
mutant_label="A29C C32U" value_measured=0.03
mutant_label="A8G C20G" value_measured=0.09
mutant_label="C11G C20U" value_measured=0.5
mutant_label="C27A U43C" value_measured=0.1
mutant_label="G13U G51U" value_measured=0.02
mutant_label="A40C G49C" value_measured=0.02
mutant_label="A40C A41U" value_measured=0.42
mutant_label="C31U G54C" value_measured=0.27
mutant_label="A10C A38G" value_measured=0.08
mutant_label="C32U G51A" value_measured=0.07
mutant_label="A28C G53A" value_measured=0.78
mutant_label="A41G G22A" value_measured=0.48
mutant_label="G44C U12A" value_measured=0.4
mutant_label="A7G U43G" value_measured=0.11
mutant_label="A28G C15U" value_measured=0.08
mutant_label="A10G G34C" value_measured=0.12
mutant_label="A28G U37G" value_measured=0.51
mutant_label="C14A G45U" value_measured=0.03
mutant_label="G30A G54U" value_measured=0.06
mutant_label="C21U U24A" value_measured=0.29
mutant_label="C26A G45A" value_measured=0.02
mutant_label="C11A C14U" value_measured=0.15
mutant_label="C21A G51U" value_measured=0.25
mutant_label="A41C G44A" value_measured=0.81
mutant_label="A41C G54U" value_measured=0.89
mutant_label="G34C G51A" value_measured=0.1
mutant_label="C33G U12C" value_measured=0.03
mutant_label="G47C U24A" value_measured=0.03
mutant_label="A38C G35U" value_measured=0.86
mutant_label="A46U G45A" value_measured=0.08
mutant_label="C25U G45C" value_measured=0.05
mutant_label="A16G A38G" value_measured=0.97
mutant_label="A10G G49U" value_measured=0.09
